Measurement Setup: in isobutanol, 313.15 K
Metric Name: solubility (mole fraction)
Could you respond with only the numeric value?

*Q* Give its solubility (mole fraction) value. Item: `OC[C@H]1O[C@@H](Oc2ccc(O)cc2)[C@H](O)[C@@H](O)[C@@H]1O`
*A* 0.000668

====

Measurement Setup: in methyl acetate, 323.15 K
Metric Name: solubility (mole fraction)
When you answer, write just the number.

*Q* Which solubility (mole fraction) reading was recorded for the compound `OC[C@H]1O[C@@H](Oc2ccc(O)cc2)[C@H](O)[C@@H](O)[C@@H]1O` ?
*A* 0.00041

====

Measurement Setup: in methyl acetate, 308.15 K
Metric Name: solubility (mole fraction)
Respond with the number and no other words.

*Q* Entry `OC[C@H]1O[C@@H](Oc2ccc(O)cc2)[C@H](O)[C@@H](O)[C@@H]1O` has what solubility (mole fraction)?
*A* 0.000239
